Numbers sourced from PubChem BioAssay (NCATS).

Assay: Quantitative High-Throughput drug screen in 47 multiple myeloma cell lines against the NCATS MIPE library collection: KMS12BM_JCRB cell viability assay (AID 1918971); note: nearly all actives have a fitted effect of over 35% in size; note: potency is the fitted concentration of half-maximal effect
Conditions: KMS12BM myeloma viability, CellTiter-Glo ATP, 48 h; series mostly up to 45.8 µM
Excerpt: PI: Beverly A. Mock Ph.D. Laboratory of Cancer Biology and Genetics, Center for Cancer Research, National Cancer Institute, National Institute of Health, Bethesda, Maryland […] 5; Detector; 425V; Luminescence; Viewlux PerkinElmer. […] 1. […] Briefly, the corresponding myeloma cell lines were screened in 1,536-well plates with 500 cells, 5-uL per well for inhibition of cell viability (assessed by measuring ATP levels with CellTiterGlo). […]
Records with an inconclusive call do not appear. Activity calls are given as the source filed them. Calls come from the whole dose curve; as a rule, active = well fitted cell-killing curve with a large enough effect; inconclusive = small, poorly fitted or top-dose-only effect, or effect the other way; inactive = no such curve, though single readings can be large or run the other way.
readout_label: Potency

The examples below pair each entry with its known result.
Would you kindly share the measured Potency for C[C@]12Cc3cn[nH]c3C[C@@H]1CC[C@@H]1[C@H]2CC[C@@]2(C)[C@H]1CC[C@]2(C)O ?
16.6 µM (active)

Looking for the measured Potency of CCNC(=O)CC1N=C(c2ccc(Cl)cc2)c2cc(OC)ccc2-n2c(C)nnc21 (stereo unspecified) , can you help?
16.6 µM (active)

Look at this compound and give its reported Potency. Cc1[nH]nc2ccc(-c3cncc(OC[C@@H](N)Cc4c[nH]c5ccccc45)c3)cc12
2.64 µM (active)

Which value of Potency has been reported for O=[N+]([O-])c1ncc[nH]1 in the records?
16.6 µM (active)

# lookup: Potency of COc1ccc(C(=O)c2c(C)n(CCN3CCOCC3)c3cc(I)ccc23)cc1
23.5 µM (active)

What Potency value was documented for this compound, COc1ccc(CC2NCCc3cc(OC)c(OC)cc32)cc1OC (stereo unspecified) ?
inactive

Others:
Please look up its Potency: CC(C)(C)c1cc(C=C(C#N)C#N)cc(Br)c1O
16.6 µM (active)

Need Potency, item C=CCON=C(C[C@H]1O[C@@H]2O[C@]3(C)CC[C@@H]4[C@H](C)CC[C@@H]([C@H]1C)[C@@]24OO3)[C@H]1O[C@@H]2O[C@]3(C)CC[C@H]4[C@H](C)CC[C@@H]([C@@H]1C)[C@@]24OO3
0.148 µM (active)
